System: HOP-62
Procedure Text: NCI tumour cell line growth inhibition, 48 h
Calls of active or inactive are those of the source. No stated cut-off is given here; in the data, active = GI50 up to about 1.1 µM and inactive = higher.
Outcome Measure: GI50

Completed entries (count: 3):
1) CCCCCCCC/C=C\CCCCCCCC(=O)O ... > 500 µM (inactive)
2) COc1ccc(/C=N/C23CC4CC(CC(C4)C2)C3)cc1 ... > 100 µM (inactive)
3) CN(C)C(=O)OC1=CC2CCC(C1)N2C (stereo not drawn) ... > 100 µM (inactive)

input: Fill in GI50 for record `COC(=O)c1c(C)[nH]c2c1cc(O)c1nc(C)c(C)nc12`
output: 18.7 µM (inactive)

input: Consider the molecule `COc1ccc(C2=C(OC(=O)N(C)C)c3cccn3-c3cc(Cl)ccc3S2)cc1` . State its measured GI50.
output: > 10 µM (inactive)

input: Supply recorded GI50 for `CCCCCCCCCCOC(=O)c1cc[n+](C)cc1` here.
output: 16.8 µM (inactive)

input: Supply measured GI50 of `CSC(=S)N/N=C(\C)c1ccc(S(=O)(=O)N(C)c2ccccc2)cc1` in your reply.
output: 56.5 µM (inactive)

input: Dear colleague, please send me the reported GI50 for `Cc1ccc(-c2cc(-c3cc(-c4ccc(C)cc4C)[nH]n3)[nH]n2)c(C)c1` when you can.
output: 13.9 µM (inactive)

###

Measured GI50, listed per entry.
Test system: HL-60
Procedure Text: NCI tumour cell line growth inhibition, 48 h
The source made the active and inactive calls. Cut-off read from the data, not from the text of the source: active = GI50 up to about 1.1 µM and inactive = higher. Square brackets hold non-standard residues; d marks the D form. Peptide text beside a SMILES is read from it. * marks the point of attachment. ξ: configuration not given here. NMeN = CN[C@@H](CC(N)=O)C(=O)O; NMeV = CN[C@H](C(=O)O)C(C)C; ξNMeV = CNC(C(=O)O)C(C)C; Boc = CC(C)(C)OC(=O)*; ξNMeA = CNC(C)C(=O)O

input: Complete the entry with GI50 for `Cn1cc(NC(=O)Nc2cc(C(=O)Nc3cc(C(=O)Nc4ccc5cc(S(=O)(=O)O)cc(S(=O)(=O)O)c5c4)n(C)c3)n(C)c2)cc1C(=O)Nc1cc(C(=O)Nc2ccc3cc(S(=O)(=O)O)cc(S(=O)(=O)O)c3c2)n(C)c1`
output: > 100 µM (inactive)

input: Tell me its GI50 given `COC(=O)c1c(C)[nH]c2c1cc(O)c1nc(C)c(C)nc12` as the entry.
output: 5.77 µM (inactive)

input: Note down GI50 recorded for COC(=O)C(C)N(C)C(=O)[C@H](CC(N)=O)N(C)C(=O)[C@@H]1CCCN1C(=O)[C@H](C(C)C)N(C)C(=O)C(C(C)C)N(C)C(=O)[C@@H](NC(=O)OC(C)(C)C)C(C)C (some centres undefined) (Boc-V[ξNMeV][NMeV]P[NMeN][ξNMeA]-OMe)
output: 15.1 µM (inactive)

input: Give recorded GI50. [N-]=[N+]=NC(c1cn(C2CC(O)C(CO)O2)c(=O)[nH]c1=O)C(Br)I (centres undefined)
output: > 100 µM (inactive)

###

# GI50 values compiled below
Tested on: SK-OV-3
Procedure Text: NCI tumour cell line growth inhibition, 48 h
Activity calls are given as the source filed them. No stated cut-off is given here; in the data, active = GI50 up to about 1.1 µM and inactive = higher.

In the examples that follow, each entry is paired with its recorded GI50.
1. CC1=NN(c2nc(N)nc(CSCc3nc(N)nc(N(C)C)n3)n2)C(C)(C)C1 ... > 100 µM (inactive)
2. COC(=O)CCc1cc(OC)c(O)c(C(Cc2ccc(OC)c(OC)c2)C(=O)OC)c1 (stereo not given) ... > 100 µM (inactive)
3. C1CCN(C2OC3C(COC3N3CCCCC3)OC2OC2CCO[C@@H]2N2CCCCC2)CC1 (stereo not given in full) ... 32.6 µM (inactive)
4. CS(=O)(=O)c1ccc(C(=O)O[C@@H]2C(=O)N3CC[C@H]4OC(O)[C@@H]2[C@H]43)cc1 (stereo not given in full) ... > 100 µM (inactive)
5. COc1cc2c(c(O)c1OC)-c1c(cc(OC)c(OC)c1OC)CC(C)C(C)C2 (stereo not given) ... 82.4 µM (inactive)

input: Return reported GI50. Input compound: `CC(=O)NNc1nc(C)c(C(=O)NNC(=O)C(=O)Nc2ccc(Cl)cc2)s1`
output: > 100 µM (inactive)

input: Please report GI50 for the following compound: `C1=CC(=NN=P(c2ccccc2)(c2ccccc2)c2ccccc2)C=C1`
output: > 100 µM (inactive)

input: In one line, give reported GI50 of the entry `CC(=O)O[C@H]1[C@@H](N2CCOCC2)C[C@H]2[C@@H]3CC=C4C[C@@H](N5CCCC5)CC[C@]4(C)[C@H]3CC[C@@]21C` .
output: > 100 µM (inactive)

input: Specify measured GI50 for `NCCCC[C@H](N)C(=O)Nc1ccc(-c2nc3ccccc3s2)cc1Cl` .
output: 16.3 µM (inactive)

input: For the compound CC1(C(=O)O)CCC2(C)CCC3(C)C(=CC(=O)C4C5(C)CCC(O)C(C)(C)C5CCC43C)C2C1 (stereo not given) , give its measured GI50 value.
output: 43.4 µM (inactive)

input: Please look at this compound and report its GI50: `Cc1cccc(NC(=O)/C=C/c2ccc(N(CCC#N)CCC#N)cc2C)c1`
output: > 100 µM (inactive)

input: Quote GI50 reported for NC(CCc1ncc(C(=O)O)s1)C(=O)O (stereo not given) please.
output: > 100 µM (inactive)

input: Return the recorded GI50 value; entry: `Clc1ccc(-c2nn3c(-c4ccncc4)nnc3s2)cc1`
output: 40.1 µM (inactive)

input: Identify measured GI50 associated with C/C(=N\N(C)C)C(CN1CCCCC1)C(c1ccccc1)c1c(O)c2ccccc2oc1=O (stereo not given)
output: 97.5 µM (inactive)
